molecular target: HDAC1 (Homo sapiens, UniProt Q13547)
Sequence (Q13547 whole entry): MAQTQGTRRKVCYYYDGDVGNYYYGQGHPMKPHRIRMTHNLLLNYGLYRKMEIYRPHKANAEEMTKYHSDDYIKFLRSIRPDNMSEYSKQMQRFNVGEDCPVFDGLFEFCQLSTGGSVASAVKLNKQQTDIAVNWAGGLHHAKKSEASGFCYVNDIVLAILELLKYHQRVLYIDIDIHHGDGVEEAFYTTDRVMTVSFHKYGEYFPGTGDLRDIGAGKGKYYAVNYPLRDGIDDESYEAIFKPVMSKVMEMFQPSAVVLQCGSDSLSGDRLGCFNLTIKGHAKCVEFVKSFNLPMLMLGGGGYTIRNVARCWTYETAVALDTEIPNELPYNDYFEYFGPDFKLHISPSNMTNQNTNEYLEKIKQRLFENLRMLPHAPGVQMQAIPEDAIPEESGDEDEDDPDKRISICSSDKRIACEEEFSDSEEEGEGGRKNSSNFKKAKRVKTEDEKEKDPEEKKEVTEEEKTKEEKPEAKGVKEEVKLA
measured-quantity: pKi
On this scale, pKi is minus log10 of a concentration expressed in M (mol/L).

Record C/C=C1\NC(=O)[C@H]2CSSCC/C=C/[C@H](CC(=O)N[C@H](C(C)C)C(=O)N2)OC(=O)[C@H](C(C)C)NC1=O [FK228] . Reported pKi: 9.92
